biological target: EGFR (Homo sapiens (Human)); assay: ErbB enzyme assay (CisBio HTRF KinEASE-TK), Assay 3; format: biochemical
Sequence (P00533 25-1210): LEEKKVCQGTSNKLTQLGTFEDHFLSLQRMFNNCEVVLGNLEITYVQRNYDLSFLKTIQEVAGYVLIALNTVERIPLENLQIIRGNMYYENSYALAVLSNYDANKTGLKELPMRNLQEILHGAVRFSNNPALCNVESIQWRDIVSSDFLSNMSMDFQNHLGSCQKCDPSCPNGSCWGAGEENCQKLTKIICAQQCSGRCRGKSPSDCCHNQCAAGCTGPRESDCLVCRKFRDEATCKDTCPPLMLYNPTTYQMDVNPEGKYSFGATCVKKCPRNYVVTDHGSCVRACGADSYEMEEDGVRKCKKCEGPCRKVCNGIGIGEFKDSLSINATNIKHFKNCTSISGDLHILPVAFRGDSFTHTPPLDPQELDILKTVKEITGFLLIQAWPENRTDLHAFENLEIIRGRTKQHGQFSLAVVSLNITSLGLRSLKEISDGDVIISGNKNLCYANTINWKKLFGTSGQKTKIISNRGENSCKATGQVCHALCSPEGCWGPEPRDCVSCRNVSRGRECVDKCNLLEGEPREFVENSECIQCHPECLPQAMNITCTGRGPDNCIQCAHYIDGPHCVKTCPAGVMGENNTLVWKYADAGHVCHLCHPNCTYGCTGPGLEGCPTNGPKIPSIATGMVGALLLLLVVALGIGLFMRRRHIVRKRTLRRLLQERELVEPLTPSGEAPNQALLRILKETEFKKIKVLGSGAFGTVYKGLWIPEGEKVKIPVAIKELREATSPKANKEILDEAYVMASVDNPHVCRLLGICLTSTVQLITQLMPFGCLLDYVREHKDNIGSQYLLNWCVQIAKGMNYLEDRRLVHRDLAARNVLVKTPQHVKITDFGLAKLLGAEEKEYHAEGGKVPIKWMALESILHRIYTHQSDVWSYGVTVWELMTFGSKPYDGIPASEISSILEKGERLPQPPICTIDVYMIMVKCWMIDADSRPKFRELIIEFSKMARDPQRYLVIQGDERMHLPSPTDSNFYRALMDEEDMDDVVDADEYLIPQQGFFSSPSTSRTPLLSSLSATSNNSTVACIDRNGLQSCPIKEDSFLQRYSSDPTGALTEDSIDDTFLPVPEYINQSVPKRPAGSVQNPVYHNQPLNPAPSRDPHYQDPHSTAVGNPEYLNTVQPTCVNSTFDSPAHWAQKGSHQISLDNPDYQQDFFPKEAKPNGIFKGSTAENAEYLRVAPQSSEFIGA
Hi! Just check whether IC50 is below 6 µM. Below gives Met, equal or above gives Not met.

COMPOUND	ANSWER LABEL
Cc1cc(Nc2ncnc3cnc(N4C[C@H]5COC[C@H]5C4)nc23)ccc1Oc1ccc2c(c1)ncn2C [Example 466]	Not met
Cc1cc(Nc2ncnc3cnc(N4CC5(COC5)C4)nc23)ccc1Oc1ccc2c(c1)ncn2C [Example 26]	Not met
Cc1cc(Nc2ncnc3cnc(N(C)C)nc23)ccc1Oc1ccc2c(c1)ncn2C [Example 3, 2,2,2-trifluoroacetate]	Not met
COC1(C)CN(c2ncc3ncnc(Nc4ccc(Oc5ccc6c(c5)ncn6C)c(C)c4)c3n2)C1 [Example 298]	Not met
Cc1cc(Nc2ncnc3cnc(NC4=NC(C)(C)CO4)nc23)ccc1Oc1ccn2ncnc2c1 [Example 362]	Met
Cc1cc(Nc2ncnc3cnc(N4CCO[C@@H]5C[C@@H]54)nc23)ccc1Oc1ccc2c(c1)ncn2C [Example 199]	Met
Cc1cc(Nc2ncnc3cnc(N4CCNC(=O)C4)nc23)ccc1Oc1ccc2c(c1)ncn2C [Example 198]	Met
N#CC[C@H]1CCN(c2ncc3ncnc(Nc4ccc(Oc5ccn6ncnc6c5)c(Cl)c4)c3n2)C1 [Example 406]	Not met
Cc1cc(Nc2ncnc3cnc(N4C[C@H](O)C5(CC5)C4)nc23)ccc1Oc1ccc2c(c1)ncn2C [Example 212]	Met
Cc1cc(Nc2ncnc3cnc(N4CCC[C@@]5(CCO5)C4)nc23)ccc1Oc1ccc2c(c1)ncn2C [Example 386]	Not met
CN(c1ncc2ncnc(Nc3ccc(Oc4ccn5ncnc5c4)c(Cl)c3)c2n1)[C@@H]1CCCOC1 [Example 368]	Met
Cc1c(Oc2ccn3ncnc3c2)ccc(Nc2ncnc3cnc(N4CC[C@@](C)(O)C4)nc23)c1F [Example 308]	Not met
CCN(CC(C)(C)O)c1ncc2ncnc(Nc3ccc(Oc4ccc5c(c4)ncn5C)c(C)c3)c2n1 [Example 478]	Not met
Cc1cc(Nc2ncnc3cnc(N4CC5(CCN(C)C5=O)C4)nc23)ccc1Oc1ccc2c(c1)ncn2C [Example 425]	Not met
CN(c1ncc2ncnc(Nc3ccc(Oc4ccc5c(c4)ncn5C)c(Cl)c3)c2n1)[C@H]1CCOC1 [Example 117]	Not met
